Target: T1, ActRIIB-Fc homodimer (UniProt Q13705 19-137)
T1 construct: extracellular domain; also called ActRIIB homodimer
T1 sequence (looked up): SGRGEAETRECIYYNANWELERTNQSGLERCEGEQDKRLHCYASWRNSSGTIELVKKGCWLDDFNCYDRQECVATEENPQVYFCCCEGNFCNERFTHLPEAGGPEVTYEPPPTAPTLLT
Assay: Biacore SPR
readout: kon (M⁻¹ s⁻¹)
Please state the figure in M⁻¹ s⁻¹; there is no need to write the unit.

Asked: Bench note: what kon did activin B (ligand, UniProt P09529 293-407, looked up) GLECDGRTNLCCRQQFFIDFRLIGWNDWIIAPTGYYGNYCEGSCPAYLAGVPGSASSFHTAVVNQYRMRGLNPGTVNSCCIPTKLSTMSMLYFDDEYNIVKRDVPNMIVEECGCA show?
Given back: 5.1e+06

Asked: Bench note: what kon did GDF11 (ligand, UniProt O95390 299-407, looked up, also called BMP11) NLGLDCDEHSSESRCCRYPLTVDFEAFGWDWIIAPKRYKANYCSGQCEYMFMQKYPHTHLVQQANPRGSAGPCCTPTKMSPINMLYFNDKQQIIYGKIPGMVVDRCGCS show?
Given back: 1.9e+06
